Recorded pKd by entry
- TARGET OR TEST SYSTEM: T1, ALFA tag-human Fc
- T1 chain: SRLEEELRRRLTE
- METHOD NOTES: SPR
- TEST PARAMETERS: chain shown with the change; room temperature; parent: 5.0 ± 0.07 pM
# pKd = -log10(concentration in molar units)

sdAb ALFA WT-TEV-His S57A; E58S; R59G (protein) EVQLQESGGGLVQPGGSLRLSCTASGVTISALNAMAMGWYRQAPGERRVMVAAVASGGNAMYRESVQGRFTVTRDFTNKMVSLQMDNLKPEDTAVYYCHVLEDRVDSFHDYWGQGTQVTVSS	8.62
sdAb ALFA WT-TEV-His S57A; E58S (protein) EVQLQESGGGLVQPGGSLRLSCTASGVTISALNAMAMGWYRQAPGERRVMVAAVASRGNAMYRESVQGRFTVTRDFTNKMVSLQMDNLKPEDTAVYYCHVLEDRVDSFHDYWGQGTQVTVSS	8.77
sdAb ALFA WT-TEV-His S57A; E58S; R59G; R65D (protein) EVQLQESGGGLVQPGGSLRLSCTASGVTISALNAMAMGWYRQAPGERRVMVAAVASGGNAMYDESVQGRFTVTRDFTNKMVSLQMDNLKPEDTAVYYCHVLEDRVDSFHDYWGQGTQVTVSS	5.95

Item sdAb ALFA WT-TEV-His E58S (protein) EVQLQESGGGLVQPGGSLRLSCTASGVTISALNAMAMGWYRQAPGERRVMVAAVSSRGNAMYRESVQGRFTVTRDFTNKMVSLQMDNLKPEDTAVYYCHVLEDRVDSFHDYWGQGTQVTVSS has what recorded pKd?
9.10

The reported measurements were obtained from paper PMC11090907.
